Measured log10(IC50) values are reported for all entries that follow.
- TESTED ON: human TLR8 (Homo sapiens (Human))
- Sequence (Q9NR97 27-1041): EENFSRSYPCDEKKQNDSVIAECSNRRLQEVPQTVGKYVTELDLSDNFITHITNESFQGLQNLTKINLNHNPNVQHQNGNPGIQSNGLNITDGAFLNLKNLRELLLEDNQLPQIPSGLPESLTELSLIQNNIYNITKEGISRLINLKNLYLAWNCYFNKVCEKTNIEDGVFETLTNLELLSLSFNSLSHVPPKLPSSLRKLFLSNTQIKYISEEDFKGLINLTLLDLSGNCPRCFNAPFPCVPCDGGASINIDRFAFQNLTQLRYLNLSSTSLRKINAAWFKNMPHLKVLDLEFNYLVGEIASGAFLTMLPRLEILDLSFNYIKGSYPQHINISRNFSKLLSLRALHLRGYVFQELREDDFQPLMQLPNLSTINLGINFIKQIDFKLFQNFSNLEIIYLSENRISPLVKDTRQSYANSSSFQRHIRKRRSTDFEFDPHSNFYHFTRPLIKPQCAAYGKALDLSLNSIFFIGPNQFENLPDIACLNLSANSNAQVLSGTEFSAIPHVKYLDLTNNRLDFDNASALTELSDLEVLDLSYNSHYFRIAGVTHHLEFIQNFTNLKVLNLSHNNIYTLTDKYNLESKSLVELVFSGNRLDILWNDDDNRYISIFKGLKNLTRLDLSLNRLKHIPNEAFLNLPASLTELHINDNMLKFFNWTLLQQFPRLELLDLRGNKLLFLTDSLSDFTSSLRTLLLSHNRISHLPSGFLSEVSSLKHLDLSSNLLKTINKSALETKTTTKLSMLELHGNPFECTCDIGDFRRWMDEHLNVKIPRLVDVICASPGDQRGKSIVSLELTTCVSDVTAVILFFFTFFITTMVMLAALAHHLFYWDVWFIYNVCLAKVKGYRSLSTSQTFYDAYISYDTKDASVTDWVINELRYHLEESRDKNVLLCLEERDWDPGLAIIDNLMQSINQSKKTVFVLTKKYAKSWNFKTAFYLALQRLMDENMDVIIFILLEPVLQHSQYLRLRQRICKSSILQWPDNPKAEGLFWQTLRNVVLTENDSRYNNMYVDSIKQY
- EXPERIMENT NOTES: TLR8 inhibition reporter assay (HEK-Blue cells, SEAP reporter, R848 stimulation);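 note: compounds tested from 0.05 nM to 50 µM, 22 h at 37 °C, SEAP measured with HEK-Blue Detection, inhibition relative to agonist plus DMSO versus a known inhibitor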
- TEST SETTINGS: read-out: TLR8 IC50, HEK-Blue cells overexpressing human TLR8, R848 15.9 μM
# log10 transformed; quantity=IC50; unit=nM

Known log10(IC50) results, listed for orientation:
{"COMPOUND": "Cc1cc(-c2[nH]c3ccc(C4CCNC(=O)C4)cc3c2C(C)C)ccn1 (centres unmarked)", "log10(IC50)": 1.83}
{"COMPOUND": "CCc1c(-c2ccnc(NC(C)=O)c2)[nH]c2ccc(C3CCNCC3)cc12", "log10(IC50)": 3.01}
{"COMPOUND": "CCc1c(-c2ccnc(OC)c2)[nH]c2ccc(C3CCN(C4CCCN(C5CCCC5)CC4)CC3)cc12 (centres unmarked)", "log10(IC50)": 1.47}
{"COMPOUND": "COCCCN1CCC(c2ccc3[nH]c(-c4cc(C)nc(C)c4)c(C(C)C)c3c2)CC1", "log10(IC50)": 0.62}

Entry under review: Cc1cc(-c2[nH]c3ccc(C4CCN(C5CCN(C(C)C)CC5F)CC4)cc3c2C(C)C)ccn1 (centres unmarked) . Reported log10(IC50)?
0.70

Recorded log10(IC50) for "Cc1cc(-c2[nH]c3ccc(C4CCN(C(=O)CN5CC(F)(F)C5)CC4)cc3c2C(C)C)cc(C)n1" , please?
2.02

Reported log10(IC50), compound Cc1cc(-c2[nH]c3ccc(C4CCN(C5CC(C)OC6(CC6)C5)CC4)cc3c2C(C)C)cc(C)n1 (centres unmarked) : ____
0.76

# query: log10(IC50) of entry "Cc1cc(-c2[nH]c3ccc(C4CCNCC4)cc3c2C(C)C)c(F)c(C)n1"
0.40
